Numbers sourced from PubChem BioAssay (EPA / NIEHS).

Molecular target: rat Thyrotropin Releasing Hormone Receptor (TRH), Trhr (gene 25570) (UniProt Q01717)
Sequence (Q01717 whole entry, looked up): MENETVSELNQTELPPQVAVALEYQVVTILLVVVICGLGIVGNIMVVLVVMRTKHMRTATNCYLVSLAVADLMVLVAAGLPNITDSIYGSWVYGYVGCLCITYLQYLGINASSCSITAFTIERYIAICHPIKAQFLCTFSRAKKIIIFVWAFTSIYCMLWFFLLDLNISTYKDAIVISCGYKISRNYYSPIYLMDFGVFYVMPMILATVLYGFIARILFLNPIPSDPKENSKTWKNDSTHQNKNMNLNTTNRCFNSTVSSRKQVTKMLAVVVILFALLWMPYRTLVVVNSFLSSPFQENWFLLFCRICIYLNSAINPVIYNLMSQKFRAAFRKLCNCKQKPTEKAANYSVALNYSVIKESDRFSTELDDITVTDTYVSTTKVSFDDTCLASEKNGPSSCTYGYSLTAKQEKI
Experiment: NVS_GPCR_rTRH: NovaScreen (NVS) G Protein-Coupled Receptor Assay for rat Thyrotropin Releasing Hormone Receptor (TRH) (AID 2283329);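 also: hit means lower bound tracer signal versus DMSO baseline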
Results filed as inconclusive are left out. Activity calls are given as the source filed them. The calls were made as follows: active = hit-call score of the fitted dose curve at least 0.9, where 1 is the maximum; inconclusive = response in the unintended direction; inactive = score below 0.9.
Your answer must be one of the following: True for active, False for inactive

Exercise: // outcome(item) with item = CC(C)C1(C)N=C(c2ncccc2C(=O)O)NC1=O (stereo not drawn)
Key: False

Exercise: // outcome(item) with item = CCCCC(O)(Cn1cncn1)c1ccc(Cl)cc1Cl (stereo not drawn)
Key: False

Exercise: // outcome(item) with item = CCOc1nc(F)cc2nc(S(=O)(=O)Nc3c(Cl)cccc3Cl)nn12
Key: False

Exercise: // outcome(item) with item = CC1(C)CON(Cc2ccccc2Cl)C1=O
Key: False

Exercise: // outcome(item) with item = Cc1cnc(C2=NC(C)(C(C)C)C(=O)N2)c(C(=O)O)c1 (stereo not drawn)
Key: False

Exercise: // outcome(item) with item = COC(=O)c1c(C(F)F)nc(C(F)(F)F)c(C2=NCCS2)c1CC(C)C
Key: True

Exercise: // outcome(item) with item = CCOP(=S)(OCC)Oc1nc(Cl)n(C(C)C)n1
Key: False

Exercise: // outcome(item) with item = CCOC(=O)C(C)OC(=O)c1cc(Oc2ccc(C(F)(F)F)cc2Cl)ccc1[N+](=O)[O-] (stereo not drawn)
Key: False

###

Read-out: Broad substrate specificity ATP-binding cassette transporter ABCG2 (Homo sapiens) (UniProt Q9UNQ0)
Sequence (Q9UNQ0 whole entry, looked up): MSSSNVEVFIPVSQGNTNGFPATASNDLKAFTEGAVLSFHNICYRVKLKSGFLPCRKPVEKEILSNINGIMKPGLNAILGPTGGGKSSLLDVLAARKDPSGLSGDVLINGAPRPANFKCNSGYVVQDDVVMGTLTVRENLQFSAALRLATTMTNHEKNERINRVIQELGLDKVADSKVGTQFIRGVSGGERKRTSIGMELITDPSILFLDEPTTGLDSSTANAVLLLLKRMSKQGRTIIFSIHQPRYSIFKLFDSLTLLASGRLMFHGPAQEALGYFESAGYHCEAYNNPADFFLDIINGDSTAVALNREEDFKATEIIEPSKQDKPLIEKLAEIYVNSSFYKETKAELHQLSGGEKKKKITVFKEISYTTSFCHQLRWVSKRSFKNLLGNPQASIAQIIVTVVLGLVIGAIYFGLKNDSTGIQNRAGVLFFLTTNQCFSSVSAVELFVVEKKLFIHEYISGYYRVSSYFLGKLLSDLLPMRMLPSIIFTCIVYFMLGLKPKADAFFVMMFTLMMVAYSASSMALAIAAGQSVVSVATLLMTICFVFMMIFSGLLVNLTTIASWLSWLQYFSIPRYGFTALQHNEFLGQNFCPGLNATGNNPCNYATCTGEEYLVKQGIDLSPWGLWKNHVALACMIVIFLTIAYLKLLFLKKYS
Experiment: LTEA_HepaRG_ABCG2: Life Technologies and Expression Analysis (LTEA) Assay for ABC Transporter (ABCG2) using HepaRG (AID 2283465)
Conditions: mRNA level, 48 h; actives raise or lower the signal
Activity calls are given as the source filed them. How the source made its calls: active means hit-call score of the fitted dose curve at least 0.9, where 1 is the maximum; inactive means score below 0.9.
Your answer must be one of the following: 1 for active, -1 for inactive

Exercise: // outcome(item) with item = COC(=O)NS(=O)(=O)c1ccc(N)cc1
Key: -1

Exercise: // outcome(item) with item = Nc1c(Cl)c(Cl)nc(C(=O)O)c1Cl
Key: -1

Exercise: // outcome(item) with item = CCC(C)n1c(=O)[nH]c(C)c(Br)c1=O (configuration not stated)
Key: -1

Exercise: // outcome(item) with item = COC(=O)c1c(C(F)F)nc(C(F)(F)F)c(C2=NCCS2)c1CC(C)C
Key: -1

Exercise: // outcome(item) with item = CCOC(=O)C(C)OC(=O)c1cc(Oc2ccc(C(F)(F)F)cc2Cl)ccc1[N+](=O)[O-] (configuration not stated)
Key: 1

Exercise: // outcome(item) with item = CCN(CC)C(=O)C(C)Oc1cccc2ccccc12 (configuration not stated)
Key: 1

Exercise: // outcome(item) with item = CCOc1nc(C(Cl)(Cl)Cl)ns1
Key: 1

Exercise: // outcome(item) with item = N#Cc1c[nH]cc1-c1cccc2c1OC(F)(F)O2
Key: 1

Exercise: // outcome(item) with item = CCCCOCN(C(=O)CCl)c1c(CC)cccc1CC
Key: -1

Exercise: // outcome(item) with item = COC(=O)NC(=S)Nc1ccccc1NC(=S)NC(=O)OC
Key: -1

Exercise: // outcome(item) with item = CS(=O)(=O)c1ccc(C(=O)C2C(=O)CCCC2=O)c([N+](=O)[O-])c1
Key: -1

Exercise: // outcome(item) with item = N#CN=C1SCCN1Cc1ccc(Cl)nc1
Key: -1
